# studyTarget: T1, human LAP-TGFB1 Fc fusion (human)
# T1 construct: also called human LAP-TGFβ1-Fc; human LAP-TGFβ-Fc isoform 1
# T1 sequence (chain, as listed by the source limits assumed): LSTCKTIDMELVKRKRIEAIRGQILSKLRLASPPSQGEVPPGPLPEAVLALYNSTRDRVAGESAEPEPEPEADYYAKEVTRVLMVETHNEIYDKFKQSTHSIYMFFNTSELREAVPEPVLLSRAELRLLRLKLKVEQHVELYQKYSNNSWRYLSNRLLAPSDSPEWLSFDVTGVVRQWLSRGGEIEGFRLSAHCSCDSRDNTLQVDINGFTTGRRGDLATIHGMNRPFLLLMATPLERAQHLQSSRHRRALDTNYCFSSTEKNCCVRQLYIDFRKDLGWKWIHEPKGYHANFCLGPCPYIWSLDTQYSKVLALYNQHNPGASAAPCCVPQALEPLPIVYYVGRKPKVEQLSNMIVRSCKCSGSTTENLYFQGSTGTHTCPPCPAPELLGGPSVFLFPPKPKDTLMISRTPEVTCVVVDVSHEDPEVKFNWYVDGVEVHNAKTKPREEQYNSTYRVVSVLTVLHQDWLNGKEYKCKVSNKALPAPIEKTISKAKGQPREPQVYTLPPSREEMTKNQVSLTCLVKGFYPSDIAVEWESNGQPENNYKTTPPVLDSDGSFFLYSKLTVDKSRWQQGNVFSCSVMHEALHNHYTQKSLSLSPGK
# procedureSummary: SPR pH 7.4, antigen-Fc captured, Fab analyte
parameter: Kd

Tell me Kd reported for 56BLH (Fab, V domains shown, also called 08BLM Fab) VH: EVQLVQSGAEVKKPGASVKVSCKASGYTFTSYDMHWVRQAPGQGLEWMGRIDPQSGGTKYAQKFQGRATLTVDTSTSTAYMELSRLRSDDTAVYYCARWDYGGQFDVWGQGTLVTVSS VL: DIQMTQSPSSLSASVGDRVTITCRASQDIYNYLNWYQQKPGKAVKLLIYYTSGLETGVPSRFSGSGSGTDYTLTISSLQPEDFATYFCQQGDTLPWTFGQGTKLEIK
6 pM
